Sourced from PubChem BioAssay AID504313

Test system: X-box-binding protein 1 (Homo sapiens) (UniProt P17861)
Test: XBP1 reporter suppression in cells – counter-screen, dose response (AID 504313);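 also: CHO cells carrying an XBP1 reporter stimulated with tunicamycin; potency is for inhibition of the tunicamycin-induced reporter signal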
Measurement conditions: XBP1 reporter cell assay, percent of control
Activity calls are given as the source filed them. No rule for the calls is given here.
Pick one and only one: 1 for active, 0 for inactive

Illustrative cases are given below, each with its answer.
molecule=Cc1ccc(C(=O)N/C(=C\c2ccc(Br)cc2)c2nc(=S)[nH][nH]2)cc1 label_value=0
molecule=O=c1c2ccccc2nc2n1CCN2Cc1ccc(Cl)cc1 label_value=0
molecule=O=S(=O)(/C(=C/c1ccc(C(F)(F)F)cc1)c1nc2ccccc2[nH]1)c1ccccc1 label_value=1
molecule=CCOC(=O)Cc1cc(-c2ccc(O)cc2)nc2ccc3ccccc3c12 label_value=0
molecule=Cc1ccccc1N1CCN(C(=O)c2ccc(Oc3ccc(C(F)(F)F)cn3)cc2)CC1 label_value=1

Please turn your attention to the following entry.
Give the logged outcome of this assay for the following molecule: `CCc1ccc2c(c1)C(c1ccc([N+](=O)[O-])cc1)=NNC(c1ccc(C)cc1)=N2`
0
